# Tgt: T1, human CD70, recombinant, N-terminally biotinylated (residues 39-193) (human, UniProt P32970 39-193, N-terminal biotin)
# T1 construct: range 39-193; the same entry is used there; also called biotinylated human CD70; CD70 biotin
# T1 sequence (looked up): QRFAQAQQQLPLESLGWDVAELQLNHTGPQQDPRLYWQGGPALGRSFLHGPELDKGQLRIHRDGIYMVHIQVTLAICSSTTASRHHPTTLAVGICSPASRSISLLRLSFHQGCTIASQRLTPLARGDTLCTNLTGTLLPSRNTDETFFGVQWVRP
# Measurement notes: CD27 blocking ELISA, 3 µM scFv, anti-His/HRP; further: unit not given here
Reported anti His/HRP is given for each of the following binders.
Readout kind: anti His/HRP

>  <Binder>
13-TC7-V-H10 (scFv, His-tagged) scFv: QVQLQQWGAGLLKPSETLSLTCAVYGGSFSGYYWSWIRQPPGKGLEWIGEINHSGSTNYNPSLKSRVTISVDTSKNQFSLKLSSVTAADTAVYYCARSRRPYWYFDLWGRGTLVTVSSGGSGGSGGSGGSQSALTQPASVSGSPGQSITISCTGTSSDVGGYNSVSWYRQHPGKAPKLMIYDVTNRPSGVSNRFSGSKSGNTASLTISGLQAEDEADYYCSSSSISATWVFGGGTKLTVL

>  <Result>
1.97

$$$$
>  <Binder>
4-TC4-I-G08 (scFv, His-tagged) scFv: QVQLVQSGGGVVQPGRSLRLSCAASGFTFSSYAMHWVRQAPGKGLEWVAVISYDGSNKYYADSVKGRFTISRDNAKNSLYLQMNSLRDEDTAVYYCARDESFDYGVDVWGKGTTVTVSSGGSGGSGGSGGSSSELTQDPAVSVALGQTVRITCQGDSLRSYYASWYQQKPGQAPVLVIYGKNNRPSGIPDRFSGSSSGNTASLTITGAQAEDEADYYCNSRDSSGNHLVVFGGGTKLTVL

>  <Result>
2.29

$$$$
>  <Binder>
47-TC7-III-D10 (scFv, His-tagged) scFv: QVQLVQSGAEVKKPGASVKVSCKASGYTFTSYGISWVRQAPGQGLEWMGWISAYNGNTNYAQKLQGRVTMTTDTSTSTAYMELRSLRSDDTAVYYCARDSSSWYYYYGMDVWGQGTTVTVSSGGSGGSGGSGGSSYELTQPPSVSVSPGQTARISCSGDALPNQYAYWYQQKPGQAPVLVIYQDSERPSGIPERFSGSSSGTTVTLTISGVQAEDEADYYCQSADTYGTSWVFGGGTKLTVL

>  <Result>
1.5

$$$$
>  <Binder>
42-TC4-VII-G08 (scFv, His-tagged) scFv: QVQLVQSGGGVVQPGRSLRLSCAASGFTFSSYAMHWVRQAPGKGLEWVAVISYDGSNKYYADSVKGRFTISRDNSKNTLYLQMNSLRAEDTAVYYCARDLSYDYGFDYWGQGTLVTVSSGGSGGSGGSGGSSSELTQDPAVSVALGQTVRITCQGDSLRSYYASWYQQKPGQAPVLVIYGKNNRPSGIPDRFSGSSSGNTASLTITGAQAEDEADYYCNSRDSSGNHLVVFGGGTKVTVL

>  <Result>
2.34

$$$$
>  <Binder>
15-TC7-I-D07 (scFv, His-tagged) scFv: QVQLQQWGAGLLKPSETLSLTCAVYGGSFSGYYWSWIRQPPGKGLEWIGEINHSGSTNYNPSLKSRVTISVDTSKNQFSLKLSSVTAADTAVYYCARVSRSRGAFDIWGQGTMVTVSSGGSGGSGGSGGSQSALTQPASVSGSPGQSITISCTGTNSDVGAYNYVSWYQQHPGKAPKLMIYEVTNRPSGVSNRFSGSKSGNTASLTISGLQAEDEADYYCSSYTSSGTWVFGGGTKLTVL

>  <Result>
2.5

$$$$
